# Test system: fourth instar larvae of diamond-back moth (Plutella maculipennis)
# protocol_notes: Emulsifiable concentrate sprayed on chinese cabbage leaves, diamond-back moth larvae (Experiment 2)
# Format: in vivo
# conditions: corresponding chrysanthemic acid ester (control) = 1.0
The molecules listed here are annotated with their Relative efficacy.
// return just the number, without any unit appended

{"molecule": "CC(C)=CC1C(C(=O)OCc2ccc(Cc3ccccc3)s2)C1(C)C (stereo not drawn)", "outcome_measure": "Relative efficacy", "measured_number": 1.0}
{"molecule": "CC1(C)C(C=C(Cl)Cl)C1C(=O)OCc1cc2c(s1)CCC2 (stereo not drawn)", "outcome_measure": "Relative efficacy", "measured_number": 2.4}
{"molecule": "CC(C)=CC1C(C(=O)OCc2ccc(Oc3ccccc3)s2)C1(C)C (stereo not drawn)", "outcome_measure": "Relative efficacy", "measured_number": 1.0}
{"molecule": "CC1(C)C(C=C(Cl)Cl)C1C(=O)OCc1ccc(Oc2ccccc2)s1 (stereo not drawn)", "outcome_measure": "Relative efficacy", "measured_number": 2.6}
{"molecule": "CC(C)=CC1C(C(=O)OCc2cc3c(s2)CCC3)C1(C)C (stereo not drawn)", "outcome_measure": "Relative efficacy", "measured_number": 1.0}

Input: Give a short answer stating reported Relative efficacy for CC1(C)C(C=C(Cl)Cl)C1C(=O)OCc1ccc(Cc2ccccc2)s1 (stereo not drawn) .
Output: 3.0
